- System: HCT-116
- Procedure summary: NCI tumour cell line growth inhibition, 48 h
The source made the active and inactive calls. Cut-off read from the data, not from the text of the source: active = GI50 up to about 1.1 µM and inactive = higher.
Property name: GI50

Reference set, count: 4
OC(CN(CCCl)CCCl)C(O)C(O)C(O)CN(CCCl)CCCl (stereo unspecified) :: > 100 µM (inactive)
Cc1cc(O)nc(NN2C(Cl)C(=O)C2c2c(O)ccc3ccccc23)n1 (stereo unspecified) :: 17.3 µM (inactive)
O=C(O)/C=C/c1ccc(OS(=O)(=O)O)cc1 :: > 100 µM (inactive)
O=P1(O)C=CC2(CCCC2)O1 :: > 100 µM (inactive)

Kindly note the recorded GI50 for CCOC(=O)c1ccc(Nc2nc3ccccc3n3cccc23)cc1 , which is > 100 µM (inactive)

Notebook: COC1(OC)C2C=CC1C([C@](C)(N)CO)C2 (stereo partly specified) , GI50 read as > 100 µM (inactive)

For this compound ( COC(=O)C1CCC(=O)N1C(c1ccc(OC)cc1)c1cc(OC)c(OC)c(OC)c1 (stereo unspecified) ), measured GI50 is 0.324 µM (active)

This collection of values is drawn from ChEMBL document CHEMBL1201862.
